- Tested on: Human immunodeficiency virus 1
- protocol: Antiviral activity against HIV1 NL4.3-Ren infected in human MT2 cells assessed as inhibition of viral growth at 10 uM measured 48 hrs post infection by luminometry
- Type: functional
- measurement-parameters: Human immunodeficiency virus 1, NL4.3-Ren, MT2, 48 h
Entries and their inhibition at 10 µM values follow.
quantity-measured: inhibition at 10 µM

1) C=C(C)[C@@H]1CC[C@]2(C)CC[C@]3(C)[C@H](C[C@@H](OC(C)=O)[C@@H]4[C@@]5(C)CCC(=O)C(C)(C)[C@@H]5CC[C@]43C)[C@@H]12
< 50%
2) C=C1C(=O)O[C@@H]2C[C@]3(C)CC[C@]4(C)[C@H](CC[C@@H]5[C@@]6(C)CCC(=O)C(C)(C)[C@@H]6CC[C@]54C)[C@H]3[C@H]12 [OCHRACEOLIDE A]
> 50%
3) C=C(C)[C@@H]1CC[C@]2(C)CC[C@]3(C)[C@@H](CC[C@@H]4[C@@]5(C)[C@@H](O)C[C@H](O)C(C)(C)[C@@H]5CC[C@]43C)[C@@H]12 [GLOCHIDIOL]
> 50%
4) C=C(C)[C@@H]1CC[C@]2(CO)CC[C@]3(C)[C@H](C[C@@H](O)[C@@H]4[C@@]5(C)CCC(=O)C(C)(C)[C@@H]5CC[C@]43C)[C@@H]12
< 50%
5) C=C(C)[C@@H]1CC[C@]2(C)CC[C@]3(C)[C@H](CC[C@@H]4[C@@]5(C)CC(Br)C(=O)C(C)(C)[C@@H]5CC[C@]43C)[C@@H]12 (stereo not given in full)
< 50%
6) C=C(C)[C@@H]1CC[C@]2(COC(C)=O)CC[C@]3(C)[C@H](CC[C@@H]4[C@@]5(C)CCC(=O)C(C)(C)[C@@H]5CC[C@]43C)[C@@H]12
> 50%
7) C=C(CO)[C@@H]1CC[C@]2(C)CC[C@]3(C)[C@H](CC[C@@H]4[C@@]5(C)CCC(=O)C(C)(C)[C@@H]5CC[C@]43C)[C@@H]12
< 50%
8) C=C(C)[C@@H]1CC[C@]2(COC(=O)c3ccc(Br)cc3)CC[C@]3(C)[C@H](CC[C@@H]4[C@@]5(C)CC[C@H](O)C(C)(C)[C@@H]5CC[C@]43C)[C@@H]12
< 50%
9) C=C(C=O)[C@@H]1CC[C@]2(COC(C)=O)CC[C@]3(C)[C@H](CC[C@@H]4[C@@]5(C)CC[C@H](O)C(C)(C)[C@@H]5CC[C@]43C)[C@@H]12
> 50%
10) C=C(C)[C@@H]1CC[C@]2(C)CC[C@]3(C)[C@@H](C[C@@H](O)[C@@H]4[C@@]5(C)CCC(=O)C(C)(C)[C@@H]5CC[C@]43C)[C@@H]12 [RIGIDENOL]
< 50%
11) C=C(C)[C@@H]1CC[C@]2(C)CC[C@]3(C)[C@@H](CC[C@@H]4[C@@]5(C)C=CC(=O)C(C)(C)[C@@H]5CC[C@]43C)[C@@H]12 [GLOCHIDONE]
< 50%
12) CC(=O)OC[C@]12CC[C@@H](C(C)(O)CO)[C@@H]1[C@H]1CC[C@@H]3[C@@]4(C)CC[C@H](O)C(C)(C)[C@@H]4CC[C@@]3(C)[C@]1(C)CC2 (stereo not given in full)
< 50%
13) CC(C)[C@@H]1CC[C@]2(C)CC[C@]3(C)[C@@H](CC[C@@H]4[C@@]5(C)CC[C@H](OC(=O)/C=C/c6ccc(O)c(O)c6)C(C)(C)[C@@H]5CC[C@]43C)[C@@H]12
< 50%
14) CC(C)(O)[C@@H]1CC[C@]2(C)CC[C@]3(C)[C@H](CC[C@@H]4[C@@]5(C)CC[C@H](O)C(C)(C)[C@@H]5[C@H](O)C[C@]43C)[C@@H]12
< 50%
15) C=C(C)[C@@H]1CC[C@]2(C)CC[C@]3(C)[C@H](CC[C@@H]4[C@@]5(C)CCC(=O)C(C)(C)[C@@H]5CC[C@]43C)[C@@H]12 [LUPENONE]
< 50%
16) C=C(C)[C@@H]1CC[C@]2(COC(=O)c3cccc4ccccc34)CC[C@]3(C)[C@H](CC[C@@H]4[C@@]5(C)CC[C@H](O)C(C)(C)[C@@H]5CC[C@]43C)[C@@H]12
< 50%
17) CC(=O)OC[C@]12CC[C@@H]([C@]3(C)CO3)[C@@H]1[C@H]1CC[C@@H]3[C@@]4(C)CC[C@H](O)C(C)(C)[C@@H]4CC[C@@]3(C)[C@]1(C)CC2
< 50%
18) C=C(C)[C@@H]1CC[C@]2(C)CC[C@]3(C)[C@H](CC[C@@H]4[C@@]5(CO)CC[C@H](O)C(C)(C)[C@@H]5CC[C@]43C)[C@@H]12
> 50%
19) C=C(C)[C@@H]1CC[C@]2(C=O)CC[C@]3(C)[C@H](CC[C@@H]4[C@@]5(C)CCC(=O)C(C)(C)[C@@H]5CC[C@]43C)[C@@H]12 [BETULONAL]
> 50%
20) C=C(C)[C@@H]1CC[C@]2(COC(C)=O)CC[C@]3(C)[C@H](CC[C@@H]4[C@@]5(C)CC[C@H](O)C(C)(C)[C@@H]5CC[C@]43C)[C@@H]12
< 50%

---

- protocol: Cytotoxicity against mock-infected human MT2 cells assessed as reduction in cell viability incubated for 48 hrs by cell-titer Glo assay
- Format: cell-based
One threshold, 20 µM, splits the recorded CC50 at 48 h values: lower ones are rule met, equal or higher ones are rule not met.

1. C=C(C=O)[C@@H]1CC[C@]2(COC(C)=O)CC[C@]3(C)[C@H](CC[C@@H]4[C@@]5(C)CC[C@H](O)C(C)(C)[C@@H]5CC[C@]43C)[C@@H]12
rule met
2. CC(C)(O)[C@@H]1CC[C@]2(C)CC[C@]3(C)[C@H](CC[C@@H]4[C@@]5(C)CCC(=O)C(C)(C)[C@@H]5[C@H](O)C[C@]43C)[C@@H]12
rule not met
3. C=C(C)[C@@H]1CC[C@]2(C)CC[C@]3(C)[C@H](C[C@@H](O)[C@@H]4[C@@]5(C)C=CC(=O)C(C)(C)[C@@H]5CC[C@]43C)[C@@H]12
rule not met
4. C=C(C(=O)O)[C@@H]1CC[C@]2(C)CC[C@]3(C)[C@H](CC[C@@H]4[C@@]5(C)CCC(=O)C(C)(C)[C@@H]5CC[C@]43C)[C@@H]12
rule not met
5. C=C(COC(C)=O)[C@@H]1CC[C@]2(C)CC[C@]3(C)[C@H](CC[C@@H]4[C@@]5(C)CCC(=O)C(C)(C)[C@@H]5CC[C@]43C)[C@@H]12
rule not met
6. C=C(C)[C@@H]1CC[C@]2(CO)CC[C@]3(C)[C@H](CC[C@@H]4[C@@]5(C)CCC(=O)C(C)(C)[C@@H]5CC[C@]43C)[C@@H]12
rule not met
7. C=C(C=O)[C@@H]1CC[C@]2(C)CC[C@]3(C)[C@H](CC[C@@H]4[C@@]5(C)CCC(=O)C(C)(C)[C@@H]5[C@H](O)C[C@]43C)[C@@H]12
rule met
8. C=C1C(=O)O[C@@H]2C[C@]3(C)CC[C@]4(C)[C@H](CC[C@@H]5[C@@]6(C)CCC(=O)C(C)(C)[C@@H]6CC[C@]54C)[C@H]3[C@H]12 [OCHRACEOLIDE A]
rule not met
9. C=C(C=O)[C@@H]1CC[C@]2(C)CC[C@]3(C)[C@H](CC[C@@H]4[C@@]5(C)CCC(=O)C(C)(C)[C@@H]5CC[C@]43C)[C@@H]12
rule met

---

- System: Human immunodeficiency virus 1
- protocol: Antiviral activity against HIV1 NL4.3-Ren infected in human MT2 cells assessed as inhibition of viral growth measured 48 hrs post infection by luminometry
- Type: functional, organism-based
- measurement-parameters: Human immunodeficiency virus 1, NL4.3-Ren, MT2, 48 h
pIC50: −log10 of the molar value.
Binary classification by pIC50, with 5 as an inclusive lower bound for T; all other cases are F.

1. C=C(C(=O)O)[C@@H]1CC[C@]2(C)CC[C@]3(C)[C@H](CC[C@@H]4[C@@]5(C)CCC(=O)C(C)(C)[C@@H]5CC[C@]43C)[C@@H]12
F
2. CC(C)(O)[C@@H]1CC[C@]2(C)CC[C@]3(C)[C@H](CC[C@@H]4[C@@]5(C)CCC(=O)C(C)(C)[C@@H]5[C@H](O)C[C@]43C)[C@@H]12
T
3. C=C(C=O)[C@@H]1CC[C@]2(COC(C)=O)CC[C@]3(C)[C@H](CC[C@@H]4[C@@]5(C)CC[C@H](O)C(C)(C)[C@@H]5CC[C@]43C)[C@@H]12
T
4. C=C1C(=O)O[C@@H]2C[C@]3(C)CC[C@]4(C)[C@H](CC[C@@H]5[C@@]6(C)CCC(=O)C(C)(C)[C@@H]6CC[C@]54C)[C@H]3[C@H]12 [OCHRACEOLIDE A]
F
5. C=C(C)[C@@H]1CC[C@]2(C=O)CC[C@]3(C)[C@H](CC[C@@H]4[C@@]5(C)CCC(=O)C(C)(C)[C@@H]5CC[C@]43C)[C@@H]12
T
6. C=C(C)[C@@H]1CC[C@]2(C)CC[C@]3(C)[C@H](CC[C@@H]4[C@@]5(CO)CC[C@H](O)C(C)(C)[C@@H]5CC[C@]43C)[C@@H]12
T
7. C=C(C=O)[C@@H]1CC[C@]2(C)CC[C@]3(C)[C@H](CC[C@@H]4[C@@]5(C)CCC(=O)C(C)(C)[C@@H]5CC[C@]43C)[C@@H]12
T
8. C=C(C)[C@@H]1CC[C@]2(CO)CC[C@]3(C)[C@H](CC[C@@H]4[C@@]5(C)CCC(=O)C(C)(C)[C@@H]5CC[C@]43C)[C@@H]12
T
9. C=C(C)[C@@H]1CC[C@]2(C(=O)O)CC[C@]3(C)[C@H](CC[C@@H]4[C@@]5(C)CC[C@H](OC(=O)CC(C)(C)C(=O)O)C(C)(C)[C@@H]5CC[C@]43C)[C@@H]12
T

# credit: ChEMBL document CHEMBL3580560
